Tested on: SK-OV-3
Assay: NCI tumour cell line growth inhibition, 48 h
The source made the active and inactive calls. Cut-off read from the data, not from the text of the source: active = GI50 up to about 1.1 µM and inactive = higher.
Hi there, I'd appreciate the recorded GI50 for every entry that follows.

Bench note, SK-OV-3: entry COC(=O)C(=O)C(C(=O)C(=O)Nc1ccc(C)cc1C)c1nc2ccccc2nc1O (stereo not given) , its GI50 = 40.1 µM (inactive)

Param item: CC(=O)OCC1OC(NC(=S)CCSc2nc3ccccc3c(=O)n2-c2ccccc2)C(OC(C)=O)C(OC(C)=O)C1OC(C)=O (stereo not given) ; param system: SK-OV-3; output GI50: 46.9 µM (inactive)

Readout GI50 for O=c1c2c3c(sc2nc2n1NC=NN2)CCCC3 , test system SK-OV-3, was 42.8 µM (inactive)

Kindly note: SK-OV-3, CCNC(=O)COc1ccc(Cl)cc1Cl , GI50 value reported: > 100 µM (inactive)

// compound O=c1c2cc(I)ccc2nc(S)n1Cc1ccccc1 , assay SK-OV-3, GI50 value: 27.5 µM (inactive)

----------
Exercise: for every item that follows, state its recorded GI50.
Test system: DU-145
Experiment: NCI tumour cell line growth inhibition, 48 h
Activity calls are given as the source filed them. Rule as the data show it: active = GI50 up to about 1.1 µM and inactive = higher.

Given item CC1(C)[C@@H](Cn2cnc3c(Cl)nc(N)nc32)CC[C@@]1(C)CO , the value recorded as its GI50 is > 100 µM (inactive)

Notebook: CC1=NN=C(N)N/C1=C/C(Sc1ccc(Cl)cc1)c1cccs1 (centres undefined) , GI50 read as 23.1 µM (inactive)

In plain terms, COc1ccc2c(c1OC)OCC(CN(C)C)C2=O (centres undefined) has a documented GI50 of 18.8 µM (inactive)

Please fill in: GI50 reported for O=C(/C=C/c1ccc(O)c([N+](=O)[O-])c1)CC(=O)/C=C/c1ccc(O)c([N+](=O)[O-])c1 = 28.4 µM (inactive)

----------
Test system: KM12
Experiment: NCI tumour cell line growth inhibition, 48 h
Activity calls are given as the source filed them. Cut-off read from the data, not from the text of the source: active = GI50 up to about 1.1 µM and inactive = higher.
Give measured GI50 for each item. Keep answers brief.

For reference, reported GI50 for CCCOCN1COCN/C1=N\C#N stands at > 100 µM (inactive)

# GI50 (molecule: CN1CC[C@@]2(c3cccc(O)c3)CC(=O)/C(=C/c3ccccc3)[C@H]1C2.[O-][Cl+3]([O-])([O-])O ) is 3.81 µM (inactive)

For reference, reported GI50 for O=P(O)(O)c1ccc(-c2ccc(I)cc2)cc1 stands at > 100 µM (inactive)

# molecule Cc1cccc(CNc2[nH]cnc3nncc2-3)c1 ; its GI50 = > 100 µM (inactive)

Reported GI50 ( C/C=C1/CN2CCC3(O)c4ccccc4N4C=C(C(=O)OC)C1CC2C43O (stereo unspecified) ) = > 100 µM (inactive)

// sample O=C(/C=C/c1ccc(O)c(O)c1)NCCc1ccc(-c2ccccc2)cc1 , its GI50 was 30.8 µM (inactive)

----------
System: Hs-578T
Test: NCI tumour cell line growth inhibition, 48 h
Active and inactive are the calls of the source. Cut-off read from the data, not from the text of the source: active = GI50 up to about 1.1 µM and inactive = higher.
observed_property: GI50

Reported GI50 for CC(=O)NC1(NC(C)=O)C2CC(C1Cc1ccccc1)C(C)(C)C2C (stereo not given) was > 100 µM (inactive)

// sample CSc1nc(Br)nc2ncn(C3CC(Oc4ccc(C)cc4)C(COc4ccc(C)cc4)O3)c12 (stereo not given) , its GI50 was 25.1 µM (inactive)

Lab note: CC1=NN=C(N)N/C1=C/C(Sc1ccc(Cl)cc1)c1cccs1 (stereo not given) gave GI50 of 17 µM (inactive)

What the record says about COc1ccc(/C(Cl)=C(\C=O)c2ccc(OC)c(OC)c2)cc1OC : GI50 is > 100 µM (inactive)

Form field GI50, entry S=C1Cc2c(-c3ccccc3)cc(-c3ccc(Cl)cc3)nc2-c2ccccc2N1 : 1.32 µM (inactive)

compound Cc1cccc2c1[nH]c1[nH]c(=O)[nH]c(=O)c12 , GI50 observed: 53.3 µM (inactive)

GI50 in this record for Cn1c(=O)oc2cc(C(=O)CN3CCN(Cc4ccc5c(c4)OCO5)CC3)c(Cl)cc21 : > 100 µM (inactive)

For this compound ( O=C(O)CN1C=C(C(=O)c2cc3ccccc3n2S(=O)(=O)c2ccccc2)CCC1 ), measured GI50 is 81.3 µM (inactive)

Noted for COc1cc(/C=c2\sc3n(c2=O)C(c2ccc(Cl)cc2)C2=C(CCCC2C)N=3)cc(OC)c1OC (stereo not given) : its GI50 reads > 100 µM (inactive)

Lab note: CCc1ncc(CO)n1Cc1cccc2ccccc12 gave GI50 of > 100 µM (inactive)

----------
Tested on: EKVX
Test: NCI tumour cell line growth inhibition, 48 h
The source made the active and inactive calls. No stated cut-off is given here; in the data, active = GI50 up to about 1.1 µM and inactive = higher.
observed_property: GI50

Short answer for COc1ccc2c(c1OC)OC[C@@H](C1=CC(=O)C=C(O)C1=O)C2 : GI50 was 12.5 µM (inactive)

O=C1C2=C(CCCCC2)C2CCCCC12O (centres undefined) has a reported GI50 of > 100 µM (inactive)

Value of measured GI50 for the entry O=c1oc2cc(O)ccc2cc1-c1nc2ccccc2o1 : 28.5 µM (inactive)

Value of measured GI50 for the entry CCOC(=O)c1c2ccccc2n2c(=O)n(C)nnc12 : 99.8 µM (inactive)

----------
Consider the following compounds; for each one, report its GI50.
Test system: SF-268
Assay: NCI tumour cell line growth inhibition, 48 h
Active and inactive are the calls of the source. Rule as the data show it: active = GI50 up to about 1.1 µM and inactive = higher.

Value of measured GI50 for the entry CC1=CSC(O)(c2ccc(Cl)cc2)c2noc(=O)n21 (stereo unspecified) : > 100 µM (inactive)

Entry under test: CSc1nc2c(ncn2C2OC(CO)C(O)C(O)C2O)c(=O)[nH]1 (stereo unspecified) . Its GI50 was > 100 µM (inactive)

Form field GI50, entry O=C(N/N=C/c1ccc([N+](=O)[O-])cc1)Nc1ccc(Br)cc1 : 52.2 µM (inactive)

The recorded GI50 for entry O=C1Nc2cccc3cc(NCC(O)CCl)cc1c23 (stereo unspecified) equals 38.4 µM (inactive)

The reported value for COc1cccc(N[C@@H]2c3cc4c(cc3C(c3cc(OC)c(O)c(OC)c3)[C@H]3C(=O)OCC32)OCO4)c1 (stereo partly specified) in terms of GI50 is 0.681 µM (active)

According to the records, this compound CC1=NN(c2cccc(Cl)c2)C(=N/c2nc3ccccc3s2)/C1=C\C=C\c1ccccc1 displays GI50 of 35.8 µM (inactive)

response.value for CC1=NN(C(=O)CC(=O)Nc2cccc(Cl)c2)C(=O)C1/N=N/c1ccc(C(=O)O)cc1 (stereo unspecified) (field: GI50) = > 100 µM (inactive)

Sample O=c1c2c3c(sc2nc2n1NC=NN2)CCCC3 ; GI50 observed: 17.5 µM (inactive)

So, Oc1c2c(nc3cc4c(cc13)OCO4)-c1ccccc1CCC2 ? Its GI50 was > 50 µM (inactive)

response.value for C[N+](C)(C)CC(=O)N/N=C(\CCC(=O)NCCc1ccccc1)CC(=O)c1ccccc1 (field: GI50) = > 100 µM (inactive)

The reported value for CCOC(=O)C1=NN(c2ccccc2)C(=O)/C1=C\NC(=S)C(N)=S in terms of GI50 is 38.5 µM (inactive)

In plain terms, NS(=O)(=O)c1ccc(CNC(=S)NC(=O)Nc2ccc(Cl)c(Cl)c2)cc1 has a documented GI50 of 21.7 µM (inactive)

Lab note: measured GI50 of c1csc(-c2nccc3c2[nH]c2ccccc23)c1 was 27 µM (inactive)

The reported value for N#CC(c1ccc(Cl)cc1)c1cccc(Cl)n1 (stereo unspecified) in terms of GI50 is 38.4 µM (inactive)

c1ccc(CSCCC(SCc2ccccc2)SCc2ccccc2)cc1 has a reported GI50 of > 10 µM (inactive)

Per the record, NCCNc1ccc(NCCN)c2c1C(=O)c1c(O)ccc(O)c1C2=O has GI50 of 0.00721 µM (active)

Entry OCC(O)C(OC1OC(CO)C(O)C(O)C1O)c1nn(-c2ccc(F)cc2)c2nc3cc(Cl)c(Cl)cc3cc12 (stereo unspecified) , GI50 reported as > 100 µM (inactive)

// sample COc1cc(NC(C)=O)c2[nH]c3c(C)cc(NC(C)=O)c(C)c3c2c1 , its GI50 was > 100 µM (inactive)

CCn1c(=O)c2c3ccc(O)cc3[nH]c2c2ccc(O)cc21 yielded GI50 of > 100 µM (inactive)

Entry COc1ccc2c(c1)-c1nn(CCCN(C)C)c3ccc([N+](=O)[O-])c(c13)N2 , GI50 reported as 0.207 µM (active)

Just so you know, measured GI50 for CCOC(=O)C1(C#N)C2(C#N)C(N)=NC(ON=C(C)C)(ON=C(C)C)C12C#N (stereo unspecified) came out at > 100 µM (inactive)

The measured GI50 associated with CCOC(=O)C1(CO)CSCCSC1 reads > 100 µM (inactive)

Please fill in: GI50 reported for CC(C)c1cccc(C(C)C)c1NC(=S)Nc1ccccc1 = > 100 µM (inactive)

GI50 reported for this compound CCOC(=O)[C-]([N+]#N)[Si](C)(C)C : 21.6 µM (inactive)

GI50 reading for CN(CCN)[C@H](CSSC[C@@H](c1ccccc1O)N(C)CCN)c1ccccc1O : 12.4 µM (inactive)

The reported value for CO/N=C(/C)c1cccc(Nc2nc3ccc(Cl)cc3c3[nH]c4ccccc4c23)c1 in terms of GI50 is 13 µM (inactive)

Recorded values, source ChEMBL document CHEMBL1201862.
